The reported measurements were obtained from the kinase profiling compilation of Christmann-Franck et al. (2016).

# maps each entry to its residual activity
- assayed.system: UniProt Q8N5S9
- Sequence (Q8N5S9 whole entry, looked up): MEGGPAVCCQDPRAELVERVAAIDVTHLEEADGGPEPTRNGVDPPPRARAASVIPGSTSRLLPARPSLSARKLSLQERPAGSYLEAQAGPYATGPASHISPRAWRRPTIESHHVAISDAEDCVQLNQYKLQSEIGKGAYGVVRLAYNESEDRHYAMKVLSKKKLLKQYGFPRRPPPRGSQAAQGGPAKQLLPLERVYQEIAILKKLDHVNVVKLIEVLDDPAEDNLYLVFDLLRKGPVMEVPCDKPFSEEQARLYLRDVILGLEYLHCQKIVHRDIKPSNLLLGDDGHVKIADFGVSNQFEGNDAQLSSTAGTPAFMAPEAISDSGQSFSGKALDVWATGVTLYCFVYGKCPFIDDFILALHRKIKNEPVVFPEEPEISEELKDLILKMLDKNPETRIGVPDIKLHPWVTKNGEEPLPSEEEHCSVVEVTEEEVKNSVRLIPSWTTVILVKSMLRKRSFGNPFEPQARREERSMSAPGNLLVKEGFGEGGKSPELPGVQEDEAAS
- procedure.details: radiometric filter-binding kinase assay, Kinase HotSpot
- condition.set: compound 0.5 µM; ATP 10 µM
Dear colleague, please return just the value in %, with no unit written.

INSERT INTO assay_data (compound, measured_number) VALUES
  ('O=C(NC(NC(=S)Nc1ccc(F)c([N+](=O)[O-])c1)C(Cl)(Cl)Cl)C(c1ccccc1)c1ccccc1 (configuration not stated)', 128),
  ('NC(=O)c1ccc(N(C(N)=O)c2c(F)cccc2F)nc1-c1ccc(F)cc1F', 98.9);

Here is the next item to consider.
**Q:** Any idea what its residual activity is? The compound is "CC(C)(C)c1nc2c3ccc(F)cc3c3c(=O)[nH]ccc3c2[nH]1"
**A:** 81.4
